target_system: vanilloid receptor 1 (VR1/TRPV1 receptor) (Homo sapiens)
Construct: expressed in transfected cells; host or cells: CHO K1
assay_summary: Functional testing on the vanilloid receptor 1 (FLIPR Ca2+ influx assay, capsaicin)
Type: cell-based, human being
details: @5 μM; Cap=capsaicin; read-out: inhibition (as a percentage), (f) (human being) Cap
Give measured inhibition at 5 µM for each item. Keep answers brief.
Note: a bare number is incomplete; add the unit.

Which inhibition at 5 µM reading was recorded for the compound Cc1cc(NC(=O)NCc2ccc(C(F)(F)F)nc2N2CCC(C)CC2)c2cn[nH]c2c1 ?
45%

inhibition at 5 µM for O=C(NCc1ccc(C(F)(F)F)nc1SC1CCCCC1)Nc1ccc2ccccc2n1 ?
19%

Using the record for Cc1ccc2cccc(NC(=O)NCc3ccc(C(C)(C)C)cc3N3CCC(C)CC3)c2n1 , report its inhibition at 5 µM.
24%

Bench note: what inhibition at 5 µM did CC1CCN(c2nc(C(F)(F)F)ccc2CNC(=O)Nc2ccnc3[nH]ncc23)CC1 show?
22%

Given the entry CC1CCN(c2nc(C(F)(F)F)ccc2CNC(=O)Nc2cc3ccccc3cn2)CC1 , report its measured inhibition at 5 µM.
39%

Reported inhibition at 5 µM, compound CC(=O)Nc1nc2ccc(NC(=O)NCc3ccc(C(F)(F)F)nc3N3CCC(C)CC3)cc2s1 : ____
47%

----------
target_system: vanilloid receptor 1 (VR1/TRPV1 receptor) (Homo sapiens)
Construct: expressed in transfected cells; host or cells: CHO K1
assay_summary: Functional testing on the vanilloid receptor 1 (FLIPR Ca2+ influx assay, capsaicin)
Format: cell-based, human being
details: Cap=capsaicin (100 nM); Ki from IC50 by Cheng-Prusoff equation; read-out: (f) Ki (human being) [nM] Cap
observable: log10 of Ki (log10 of the value in nM)
Annotation: log10 of Ki, nM basis.

Find the recorded log10 of Ki belonging to CC1CCN(c2nc(C(F)(F)F)ccc2CNC(=O)Nc2cccc3[nH]c(C(C)(C)C)cc23)CC1 and report it.
0.90

What value of log10 of Ki has been recorded for this entry: COc1nc(Cl)cc2c(NC(=O)NCc3ccc(C(F)(F)F)nc3N3CCC(C)CC3)cccc12
0.00

Look up log10 of Ki: CC1CCN(c2nc(C(F)(F)F)ccc2CNC(=O)Nc2cc(F)cc3[nH]ncc23)CC1
0.48

Dear colleague, I am looking for the recorded log10 of Ki of the following molecule: CC1CCN(c2nc(C(F)(F)F)ccc2CNC(=O)Nc2cc(Cl)cc3[nH]ncc23)CC1
0.60

log10 of Ki for CCCCOc1nc(C(F)(F)F)ccc1CNC(=O)Nc1cccc2c1cnn2C ?
0.48

Which value of log10 of Ki has been reported for CC1CCN(c2nc(C(F)(F)F)ccc2CNC(=O)Nc2cccc3[nH]ncc23)CC1 in the records?
-0.40

Please give the measured log10 of Ki for this molecule: CC1CCN(c2nc(C(F)(F)F)ccc2CNC(=O)Nc2cccc3c2cnn3C)CC1
-0.30

Please look up its log10 of Ki: COc1ccc(NC(=O)NCc2ccc(C(F)(F)F)nc2N2CCC(C)CC2)c2cnccc12
1.79

Need log10 of Ki, item CC1CCN(c2nc(C(F)(F)F)ccc2CNC(=O)Nc2ccc3cc[nH]c3c2)CC1
1.38

Item CC(C)Oc1nc(C(F)(F)F)ccc1CNC(=O)Nc1cccc2ncccc12 has what recorded log10 of Ki?
0.60

log10 of Ki lookup needed for Cc1nc2cc(NC(=O)NCc3ccc(C(F)(F)F)nc3N3CCC(C)CC3)ccc2s1 , thanks.
1.34

I'd like to know its log10 of Ki. The molecule in question is O=C(NCc1ccc(C(F)(F)F)nc1SC1CCCCC1)Nc1cncc2ccccc12
0.60

Would you kindly share the measured log10 of Ki for O=C(NCc1ccc(C(F)(F)F)cc1C1CCCC1)Nc1cc(F)cc2[nH]ncc12 ?
0.85

Sample CC1CCN(c2nc(C(F)(F)F)ccc2CNC(=O)Nc2ccc3cncnc3c2)CC1 — what was its log10 of Ki?
0.90

Reported log10 of Ki for Cc1nc2ccc(NC(=O)NCc3ccc(C(F)(F)F)nc3N3CCC(C)CC3)cc2s1 : what is it?
0.60

Recorded log10 of Ki for CC1CCN(c2nc(C(F)(F)F)ccc2CNC(=O)Nc2ccc3ncsc3c2)CC1 , please?
0.60

log10 of Ki lookup needed for Cc1nccc2c(NC(=O)NCc3ccc(C(F)(F)F)nc3N3CCC(C)CC3)cccc12 , thanks.
0.00

Recorded log10 of Ki of CC1CCN(c2nc(C(F)(F)F)ccc2CNC(=O)Nc2cncc3ccccc23)CC1 , please.
0.30

Can you look up the measured log10 of Ki of CC1CCN(c2nc(C(F)(F)F)ccc2CNC(=O)Nc2ccc3nc(N)sc3c2)CC1 for me?
1.70

Quick one: log10 of Ki of CC1CCN(c2nc(C(F)(F)F)ccc2CNC(=O)Nc2cccc3c2ccn3C)CC1 ?
0.70

Please report the recorded log10 of Ki for Cc1ccc2cc(NC(=O)NCc3ccc(C(F)(F)F)nc3N3CCC(C)CC3)ccc2n1 .
1.83

Using the record for COc1nccc2c(NC(=O)NCc3ccc(C(F)(F)F)nc3N3CCC(C)CC3)cccc12 , report its log10 of Ki.
0.90

Item CC1CCN(c2nc(C(F)(F)F)ccc2CNC(=O)Nc2cnc3ccccc3c2)CC1 has what recorded log10 of Ki?
0.95

// returns reported log10 of Ki for input Cn1ncc2c(NC(=O)NCc3ccc(C(F)(F)F)nc3OCC3CCC3)cccc21
0.30

Entry CC(C(=O)NCc1ccc(C(F)(F)F)nc1SC1CCCCC1)c1cnc2ccccc2c1 (stereo not drawn) has what log10 of Ki?
1.70

What does the record list as log10 of Ki for Cc1cc2cccc(NC(=O)NCc3ccc(C(F)(F)F)nc3N3CCC(C)CC3)c2cn1 ?
1.18

For CC1CCN(c2nc(C(F)(F)F)ccc2CNC(=O)Nc2ccc3ccncc3c2)CC1 , what is its reported log10 of Ki?
0.90

Given the entry Cc1nccc2cccc(NC(=O)NCc3ccc(C(F)(F)F)nc3N3CCC(C)CC3)c12 , report its measured log10 of Ki.
1.72

Suppose we examine the molecule CC1CCN(c2nc(C(F)(F)F)ccc2CNC(=O)C(C)c2ccnc3[nH]ncc23)CC1 (stereo not drawn) ; what log10 of Ki value has been reported?
0.30

# query: log10 of Ki of entry CC1CCN(c2nc(C(F)(F)F)ccc2CNC(=O)Nc2cccc3ncsc23)CC1
0.00

I am curious: what log10 of Ki value has been reported for CC1CCN(c2nc(C(F)(F)F)ccc2CNC(=O)Nc2ccc3cnccc3c2)CC1 ?
0.85

What log10 of Ki value was documented for this molecule, CC1CCN(c2nc(C(C)(C)C)ccc2CNC(=O)Nc2cccc3ncccc23)CC1 ?
0.00

I am curious: what log10 of Ki value has been reported for CC1CCN(c2nc(C(F)(F)F)ccc2CNC(=O)Nc2cccc3[nH]ccc23)CC1 ?
0.00

----------
target_system: vanilloid receptor 1 (VR1/TRPV1 receptor) (Homo sapiens, UniProt Q8NER1)
Construct: expressed in transfected cells; host or cells: CHO K1
Sequence (Q8NER1 whole entry): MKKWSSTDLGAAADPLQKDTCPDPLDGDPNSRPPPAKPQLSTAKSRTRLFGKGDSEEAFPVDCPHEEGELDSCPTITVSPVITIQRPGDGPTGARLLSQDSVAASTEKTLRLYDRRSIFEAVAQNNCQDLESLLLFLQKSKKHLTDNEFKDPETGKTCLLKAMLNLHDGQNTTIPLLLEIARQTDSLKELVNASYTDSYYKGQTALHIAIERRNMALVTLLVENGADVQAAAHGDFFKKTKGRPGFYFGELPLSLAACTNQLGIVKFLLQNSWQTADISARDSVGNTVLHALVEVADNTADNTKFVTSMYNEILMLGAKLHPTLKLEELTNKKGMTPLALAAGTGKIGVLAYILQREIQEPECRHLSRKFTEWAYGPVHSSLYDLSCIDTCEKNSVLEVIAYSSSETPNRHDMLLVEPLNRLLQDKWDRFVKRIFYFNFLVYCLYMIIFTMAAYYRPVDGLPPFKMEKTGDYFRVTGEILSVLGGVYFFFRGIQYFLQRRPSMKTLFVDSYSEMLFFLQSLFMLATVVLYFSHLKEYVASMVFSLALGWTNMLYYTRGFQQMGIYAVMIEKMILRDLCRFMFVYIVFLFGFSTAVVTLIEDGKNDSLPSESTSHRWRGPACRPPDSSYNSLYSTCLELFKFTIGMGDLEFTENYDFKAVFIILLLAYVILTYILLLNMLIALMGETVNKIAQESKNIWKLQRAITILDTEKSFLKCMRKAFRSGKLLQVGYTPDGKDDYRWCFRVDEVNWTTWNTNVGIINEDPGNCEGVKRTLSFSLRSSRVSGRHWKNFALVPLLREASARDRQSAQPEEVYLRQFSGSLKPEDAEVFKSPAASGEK
assay_summary: Functional testing on the vanilloid receptor 1 (FLIPR Ca2+ influx assay, capsaicin)
Format: cell-based, human being
details: Cap=capsaicin (100 nM); Ki from IC50 by Cheng-Prusoff equation; read-out: (f) Ki (human being) [nM] Cap
I'd appreciate it if you could supply Ki values for the items below.
Quick reminder: number only, in nM, skip the unit.

Suppose we examine the molecule O=C(NCc1ccc(C(F)(F)F)nc1SC1CCCCC1)Nc1ccc2cccnc2c1 ; what Ki value has been reported?
5

For the molecule CC1CCN(c2cc(C(C)(C)C)ccc2CNC(=O)Nc2cccc3ncccc23)CC1 , what Ki is on record?
1

Which Ki reading was recorded for the molecule CC1CCN(c2nc(C(F)(F)F)ccc2CNC(=O)Nc2c(Cl)ccc3[nH]ncc23)CC1 ?
3

Fill blank: measured Ki of the molecule CC(C)(C)COc1nc(C(F)(F)F)ccc1CNC(=O)Nc1cccc2ncccc12 is ____.
2

----------
Please provide measured Ki for the entries that follow.
target_system: vanilloid receptor 1 (VR1/TRPV1 receptor) (Homo sapiens)
Construct: expressed in transfected cells; host or cells: CHO K1
assay_summary: Functional testing on the vanilloid receptor 1 (FLIPR Ca2+ influx assay, capsaicin)
Format: cell-based, human being
details: Cap=capsaicin (100 nM); Ki from IC50 by Cheng-Prusoff equation; read-out: (f) Ki (human being) [nM] Cap
Expressed in nM, but write only the number.

Any idea what its Ki is? The molecule is CC1CCN(c2nc(C(F)(F)F)ccc2CNC(=O)Nc2ccc3[nH]ccc3c2)CC1 [Example 23]
13

What Ki value was documented for this molecule, Cc1cc2cc(NC(=O)NCc3ccc(C(F)(F)F)nc3N3CCC(C)CC3)ccc2[nH]1 [Example 24] ?
26

What value of Ki has been reported for the following molecule? CN(C)C1(c2ccccc2)CCN(c2nc(C(F)(F)F)ccc2CNC(=O)Nc2cccc3cnccc23)CC1 [Example 77]
4

For CC1CCN(c2nc(C(F)(F)F)ccc2CNC(=O)Nc2cnc3[nH]ncc3c2)CC1 [Example 5] , what is its reported Ki?
21

So what does the record say about Ki for CC1CCN(c2nc(C(F)(F)F)ccc2CNC(=O)Nc2cccc3c2ccn3S(C)(=O)=O)CC1 [Example 42] ?
2

Need Ki, item CC1CCN(c2nc(C(F)(F)F)ccc2CNC(=O)C(C)c2cnc3ccccc3c2)CC1 (centres unmarked) [Example 14]
44

For the molecule shown here, CC1CCN(c2nc(C(C)(C)C)ccc2CNC(=O)Nc2cccc3cnccc23)CC1 [Example 76] , give the reported Ki.
0.1

Look up Ki for this molecule: CC(=O)n1ccc2c(NC(=O)NCc3ccc(C(F)(F)F)nc3N3CCC(C)CC3)cccc21 [Example 41]
8
